Data origin, for the record: patent US11820766B2

Listed molecules paired with reported log10 IC50
SYSTEM UNDER TEST: human MGL from HeLa cells (Homo sapiens, UniProt Q99685)
Construct: combining endogenously expressed MGL from HeLa cells with test compounds; endogenous in cells; host or cells: HeLa cells / cell homogenates
Sequence (Q99685 1-303): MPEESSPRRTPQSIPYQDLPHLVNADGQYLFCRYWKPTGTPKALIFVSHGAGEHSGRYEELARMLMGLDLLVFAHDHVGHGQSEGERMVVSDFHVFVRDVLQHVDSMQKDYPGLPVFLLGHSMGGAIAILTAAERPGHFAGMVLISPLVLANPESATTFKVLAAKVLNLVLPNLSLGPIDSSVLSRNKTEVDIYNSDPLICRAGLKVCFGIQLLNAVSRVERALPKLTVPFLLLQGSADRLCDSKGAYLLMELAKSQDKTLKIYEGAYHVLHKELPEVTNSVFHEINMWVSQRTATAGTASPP
ASSAY METHOD TEXT: In vitro MGL activity assay: [glycerol-1,3-3H]-oleyl glycerol cleavage by MGL from HeLa cells
Format: biochemical
CONDITION LABEL: 300 nM [Glycerol-1,3-3H]-oleyl glycerol, one hour
PROPERTY MEASURED: log10 IC50 (log10 of the value in nM)

SMILES TEXT	log10 IC50
C[C@H]1c2nn(-c3ccccc3)c(-c3ccccc3)c2CCN1C(=O)c1cnn(C)c1C1CC1	1.44
Cc1ccc2nc(C)c(C(=O)N3CCc4c(nn(C)c4-c4cc(F)c(F)c(F)c4)[C@@H]3C)n2c1	2.45
Cc1cnn2ncc(C(=O)N3CCc4c(nn(C)c4-c4cc(F)c(F)c(F)c4)[C@@H]3C)c2c1	1.09
C[C@H]1c2nn(C)c(-c3cc(F)c(F)c(F)c3)c2CCN1C(=O)c1cn(C)nc1C1(F)CC1	2.93
Cc1ccn2ncc(C(=O)N3CCc4c(nn(C)c4-c4cc(F)c(F)c(F)c4)[C@@H]3C)c2c1	0.81
Cc1nc(C(=O)N2CCc3c(nn(C)c3-c3cc(F)c(F)c(F)c3)[C@@H]2C)c2cnccn12	1.55
C[C@H]1c2nn(C)c(-c3cccc4nonc34)c2CCN1C(=O)c1ccc2ncccc2c1	1.86
